Every entry's value here was drawn from ChEMBL document CHEMBL1201862.

Test system: MOLT-4
Assay: NCI tumour cell line growth inhibition, 48 h
Active and inactive are the calls of the source. Cut-off read from the data, not from the text of the source: active = GI50 up to about 1.1 µM and inactive = higher.
Form entry, call: pick from active, inactive

Dear all, I need the recorded test outcome for Cc1cc(C)nc(NC(=O)COc2ccc(Cl)cc2)c1 , thank you. inactive

Dear all, I need the recorded test outcome for C/C1=C\[C@H](C)C[C@H](C)OC(=O)[C@H](C)NC(=O)[C@@H](Cc2ccc(O)c(Br)c2)N(C)C(=O)[C@H](C)NC(=O)[C@@H](C)C1 , thank you. active

Dear all, I need the recorded test outcome for CC(=O)Oc1ccccc1-c1cc2ccccc2oc1=O , thank you. inactive

Dear all, I need the recorded test outcome for COc1ccccc1NC(=O)CC(=O)N1N=C(C)C(/N=N/c2ccc(S(N)(=O)=O)cc2)C1=O (configuration not stated) , thank you. inactive

Dear all, I need the recorded test outcome for COC(=O)c1c(C)cccc1/C=C1/Cc2c(C)cccc2C1=O , thank you. inactive

Dear all, I need the recorded test outcome for COc1ccc2c(c1)N=C1CSC(c3cccc(Br)c3)N1C2 (configuration not stated) , thank you. inactive

Dear all, I need the recorded test outcome for CCOC(=O)c1nc2ccccc2nc1NCc1cc(OC)c(OC)c(OC)c1 , thank you. inactive

Dear all, I need the recorded test outcome for CC(=O)OC1CCC2(C)C(CCC3C2CCC2(C)C(c4ccc(=O)oc4)C(OC(C)=O)CC32O)C1 (configuration not stated) , thank you. active

Dear all, I need the recorded test outcome for CC1(C(=O)NCCN(CCNC(=O)C2(C)CC3(C)CC(C)(C2)C(=O)NC3=O)CCNC(=O)C2(C)CC3(C)CC(C)(C2)C(=O)NC3=O)CC2(C)CC(C)(C1)C(=O)NC2=O (configuration not stated) , thank you. inactive

Dear all, I need the recorded test outcome for CC(=O)n1c2ccccc2c2nc3nc(Oc4ccc(C)cc4)c4ccccc4c3cc21 , thank you. inactive

Dear all, I need the recorded test outcome for CN(C)/N=C(/c1nc2ccc([N+](=O)[O-])cc2nc1O)C(O)c1ccco1 (configuration not stated) , thank you. inactive

Dear all, I need the recorded test outcome for O=C1c2c(ccc3c2CCCC3)CC12Cc1ccc3c(c1C2=O)CCCC3 , thank you. inactive

Dear all, I need the recorded test outcome for CSc1c(CC(=O)O)n(Cc2ccccc2)c2ccccc12 , thank you. inactive

Dear all, I need the recorded test outcome for O=C(O)C1CCCCN1c1ccccc1[N+](=O)[O-] (configuration not stated) , thank you. inactive

Dear all, I need the recorded test outcome for N[C@H](C(=O)O)[C@@H]1CC(Cl)=NO1 , thank you. inactive

Dear all, I need the recorded test outcome for Cc1ccc(C)c(N2C(=O)C(=O)C(c3nc4ccccc4s3)/C(=N\c3cccc4c(=O)[nH][nH]c(=O)c34)C2=O)c1 (configuration not stated) , thank you. inactive

Dear all, I need the recorded test outcome for COC(=O)c1c(C)cccc1CC1Cc2c(C)cccc2C1=O (configuration not stated) , thank you. inactive

Dear all, I need the recorded test outcome for O=C(/C=C/c1ccccc1O)c1ccccc1Cl , thank you. inactive

Dear all, I need the recorded test outcome for COc1cc(NCc2ccc3nc(OC)c(OC)nc3c2)cc(OC)c1OC , thank you. inactive

Dear all, I need the recorded test outcome for CC(=O)O[C@H]1CC[C@@]2(C)C(=CC[C@@H]3C2CC[C@]2(C)Nc4nc5ccccc5cc4CC32)C1 (some centres not stated) , thank you. inactive

Dear all, I need the recorded test outcome for CC(C)c1[nH]nc(C(N)=O)c1/N=N/N(C)C , thank you. inactive

Dear all, I need the recorded test outcome for CC1=CC(=O)/C(=C/NC(N)=S)C(=O)O1 , thank you. inactive
